Target: Serine/threonine-protein kinase PknG (Mycobacterium tuberculosis)
Experiment: Inhibition of Mycobacterium tuberculosis recombinant PKnG expressed in Escherichia coli BL21 (DE3) cells using myelin basic protein substrate at 12.5 uM by luciferase activity based ADP-Glo-luminescent kinase assay
The entries below are paired with their reported inhibition.
Output spec: scalar in %, unitless text.

Recall the recorded inhibition for `Nc1nc(-c2ccc(Br)cc2)cc(-c2ccc(OCc3cn(Cc4ccc(Br)cc4)nn3)cc2O)n1` with Serine/threonine-protein kinase PknG (Mycobacterium tuberculosis) and state it.
0

Write down the reported inhibition of `CC(C)c1ccc(-c2cc(-c3ccc(OCc4cn(Cc5ccccc5)nn4)cc3O)nc(N)n2)cc1` , test system: Serine/threonine-protein kinase PknG (Mycobacterium tuberculosis).
0

# value lookup — system Serine/threonine-protein kinase PknG (Mycobacterium tuberculosis), readout inhibition, item `Nc1nc(-c2ccccc2)cc(-c2ccc(OCc3cn(Cc4ccc(Br)cc4)nn3)cc2O)n1`
0

Provide the documented inhibition with Serine/threonine-protein kinase PknG (Mycobacterium tuberculosis) as the system for `Nc1nc(-c2ccc(OCc3cn(Cc4ccccc4)nn3)cc2O)cc(-c2cccc3ccccc23)n1`
11

Record `CCCCCCn1cc(COc2ccc(-c3cc(-c4ccccc4)nc(N)n3)c(O)c2)nn1` : what is its inhibition with Serine/threonine-protein kinase PknG (Mycobacterium tuberculosis)?
0
